system: HeLa Kyoto; assay: solubility change mitosis vs G1/S (difference of NP-40 vs SDS log2 ratios) (log2 ratio difference); higher = more soluble in mitosis
attribute.measured: solubility change mitosis (log2)

>>> recorded_result("MNMIWRNSISCLRLGKVPHRYQSGYHPVAPLGSRILTDPAKVFEHNMWDHMQWSKEEEAAARKKVKENSAVRVLLEEQVKYEREASKYWDTFYKIHKNKFFKDRNWLLREFPEILPVDQKPEEKARESSWDHVKTSATNRFSRMHCPTVPDEKNHYEKSSGSSEGQSKTESDFSNLDSEKHKKGPMETGLFPGSNATFRILEVGCGAGNSVFPILNTLENSPESFLYCCDFASGAVELVKSHSSYRATQCFAFVHDVCDDGLPYPFPDGILDVILLVFVLSSIHPDRTLFI [METTL8]")
0.054
>>> recorded_result("MAAPALRLCHIAFHVPAGQPLARNLQRLFGFQPLASREVDGWRQLALRSGDAVFLVNEGAGSGEPLYGLDPRHAVPSATNLCFDVADAGAATRELAALGCSVPVPPVRVRDAQGAATYAVVSSPAGILSLTLLERAGYRGPFLPGFRPVSSAPGPGWVSRVDHLTLACTPGSSPTLLRWFHDCLGFCHLPLSPGEDPELGLEMTAGFGLGGLRLTALQAQPGSIVPTLVLAESLPGATTRQDQVEQFLARHKGPGLQHVGLYTPNIVEATEGVATAGGQFLAPPGAYYQQPGKERQIRAAGHEPHLLARQGILLDGDKGKFLLQVFTKSLFTEDTFFLELIQRQGATGFGQGNIRALWQSVQEQSARSQEA [HPDL]")
-0.0348
>>> recorded_result("MLVSGRRRLLTVLLQAQKWPFQPSRDMRLVQFRAPHLVGPHLGLETGNGGGVINLNAFDPTLPKTMTQFLEQGEATLSVARRALAAQLPVLPRSEVTFLAPVTRPDKVVCVGMNYVDHCKEQNVPVPKEPIIFSKFASSIVGPYDEVVLPPQSQEVDWEVELAVVIGKKGKHIKATDAMAHVAGFTVAHDVSARDWQMRRNGKQWLLGKTFDTFCPLGPALVTKDSVADPHNLKICCRVNGEVVQSGNTNQMVFKTEDLIAWVSQFVTFYPGDVILTGTPPGVGVFRKPPVFLKKGDEVQCEIEELGVIINKVV [FAHD2A]")
-0.192

----------
tested on: HeLa Kyoto; test: thermal stability score vs G1/S (z-score of summed log2 fold changes over temperatures); higher = more thermally stable than in G1/S; conditions: cell cycle stage: early G1 (4.5 h after nocodazole release)
attribute.measured: thermal stability score

>>> recorded_result("MGLSPSAPAVAVQASNASASPPSGCPMHEGKMKGCPVNTEPSGPTCEKKTYSVPAHQERAYEYVECPIRGTAAENKENLDPSNLMPPPNQTPAPDQPFALSTVREESSIPRADSEKKWVYPSEQMFWNAMLKKGWKWKDEDISQKDMYNIIRIHNQNNEQAWKEILKWEALHAAECPCGPSLIRFGGKAKEYSPRARIRSWMGYELPFDRHDWIINRCGTEVRYVIDYYDGGEVNKDYQFTILDVRPALDSLSAVWDRMKVAWWRWTS [HCCS]")
-0.00681
>>> recorded_result("MVHQVLYRALVSTKWLAESIRTGKLGPGLRVLDASWYSPGTREARKEYLERHVPGASFFDIEECRDTASPYEMMLPSEAGFAEYVGRLGISNHTHVVVYDGEHLGSFYAPRVWWMFRVFGHRTVSVLNGGFRNWLKEGHPVTSEPSRPEPAVFKATLDRSLLKTYEQVLENLESKRFQLVDSRSQGRFLGTEPEPDAVGLDSGHIRGAVNMPFMDFLTEDGFEKGPEELRALFQTKKVDLSQPLIATCRKGVTACHVALAAYLCGKPDVAVYDGSWSEWFRRAPPESRVSQGKSEKA [TST]")
5.41
>>> recorded_result("MPAVLGFEGSANKIGVGVVRDGKVLANPRRTYVTPPGTGFLPGDTARHHRAVILDLLQEALTESGLTSQDIDCIAYTKGPGMGAPLVSVAVVARTVAQLWNKPLVGVNHCIGHIEMGRLITGATSPTVLYVSGGNTQVIAYSEHRYRIFGETIDIAVGNCLDRFARVLKISNDPSPGYNIEQMAKRGKKLVELPYTVKGMDVSFSGILSFIEDVAHRMLATGECTPEDLCFSLQETVFAMLVEITERAMAHCGSQEALIVGGVGCNVRLQEMMATMCQERGARLFATDERFCIDNGAMIAQAGWEMFRAGHRTPLSDSGVTQRYRTDEVEVTWRD [OSGEP]")
0.00035
